# Tested on: IL-6 Production
# test-protocol: Inhibitory activity against IL-6 production (LPS-stimulated RAW 264.7 cells, ELISA)
# Assay type: cell-based
# measurement-parameters: Mus musculus, RAW264.7, lipopolysaccharide, culturing for 20 hours
# Procedure: RAW 264.7 cells, which had been cultured until confluence on DMEM culture with 10% fetal bovine serum (FBS) added thereto, were diluted to 1×10^6 cells/ml with the same medium, and were then inoculated at 100 μl/well to a 96-well plate. […] The amount of IL-6 in each of the thus-obtained cultures of RAW 264.7 cells was measured by ELISA, and 5 the inhibitory activity against IL-6 production was determined with reference to a standard curve of IL-6.
readout: IC50 (µM)
Give bare numbers, in µM.

1) CCn1nc(-c2ccc(OC)cc2)c(-c2ccc(OC)cc2)cc1=O    0.4

Look at each compound and report its IC50.
1. COc1ccc(-c2cc(=O)n(CCO)nc2-c2ccc(OC)cc2)cc1
2. COc1ccc(-c2cc(=O)n(CCCl)nc2-c2ccc(OC)cc2)cc1

1: 44; 2: 65
